- Test system: Pseudomonas aeruginosa SR24
- Experiment description: Minimum Inhibitory Concentration (MIC), agar plate incubation, Japan Society for Chemotherapy standard method
- Format: cell-based
- Condition context: Pseudomonas aeruginosa SR24; no enzyme, ceftazidime sensitive strain; 1000 cfu/spot; sensitive disc medium
Overview of reported Minimum Inhibitory Concentration (MIC) across a group of molecules:

| Molecule | System name | Minimum Inhibitory Concentration (MIC) / µg/mL |
| --- | --- | --- |
| CC(C)(ON=C(C(=O)NC1C(=O)N2C(C(=O)[O-])=C(C[N+]34CCCC3CN(C(=O)c3ccc(O)c(O)c3Cl)CC4)CSC12)c1csc(N)n1)C(=O)[O-].[Na+] (centres unmarked) [Compound I-15] | Pseudomonas aeruginosa SR24 | 0.063 |
| CC(ON=C(C(=O)NC1C(=O)N2C(C(=O)[O-])=C(C[N+]34CCCC3CN(C(=O)c3ccc(O)c(O)c3Cl)CC4)CSC12)c1csc(N)n1)C(=O)[O-].[Na+] (centres unmarked) | Pseudomonas aeruginosa SR24 | 0.063 |
| Nc1nc(/C(=N/O[C@@H](CC(=O)[O-])C(=O)[O-])C(=O)N[C@@H]2C(=O)N3C(C(=O)[O-])=C(C[N+]45CCC[C@H]4CN(C(=O)c4cc(O)c(O)c(Cl)c4)CC5)CS[C@H]23)cs1.[Na+].[Na+] (some centres unmarked) | Pseudomonas aeruginosa SR24 | 0.063 |
| C[N+]1(CC2=C(C(=O)[O-])N3C(=O)C(NC(=O)C(=NOC(CC(=O)[O-])C(=O)[O-])c4csc(N)n4)C3SC2)CC2CN(C(=O)c3ccc(O)c(O)c3Cl)CC2C1.[Na+].[Na+] (centres unmarked) | Pseudomonas aeruginosa SR24 | 0.125 |
| CC(C)(O/N=C(\C(=O)N[C@@H]1C(=O)N2C(C(=O)[O-])=C(C[N+]3(C)CCC4(CCN(C(=O)c5ccc(O)c(O)c5Cl)CC4)CC3)CS[C@H]12)c1csc(N)n1)C(=O)[O-].[Na+] | Pseudomonas aeruginosa SR24 | 0.063 |
